Would you mind telling me the reported pIC50 of each entry?
System: NB1;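 further: reduction of NB1 cell proliferation, read out with a viability assay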
Test: cells
Format: functional, cell-based
Conditions: Homo sapiens
Description: SANGER: Inhibition of human NB1 cell growth in a cell viability assay.
pIC50: −log10 of the molar value.

compound	reported endpoint	reported result
CO[C@@]12[C@H](COC(N)=O)C3=C(C(=O)C(C)=C(N)C3=O)N1C[C@@H]1N[C@@H]12	pIC50	6.73

Hi there! I need pIC50 for each item below, if you can.
1. N#C/C(=C1/Nc2ccccc2S1)c1ccnc(NCCc2cccnc2)n1
2. CCNc1cc(N[C@H]2CC[C@@H](O)CC2)nc(Nc2ccc3c(ccn3Cc3ccccc3)c2)n1
3. CC(O)(CS(=O)(=O)c1ccc(F)cc1)C(=O)Nc1ccc(C#N)c(C(F)(F)F)c1 (stereo unspecified) [BICALUTAMIDE]
4. C/C(O)=C(\C#N)C(=O)Nc1cc(Br)ccc1Br

["< 5.10", "< 5.29", "< 5.99", "< 4.80"]

The reported pIC50 of the compound `Cc1nc(Nc2ncc(C(=O)Nc3c(C)cccc3Cl)s2)cc(N2CCN(CCO)CC2)n1` was < 5.89
